# assay: Tmax in BALB/c mouse at 10 mg/kg, po by LC-MS analysis
# Format: ADME, organism-based
# run_conditions: in vivo
test_readout: Tmax (h)

given_smiles: Cc1nc2cc(NC(=O)c3cc4sc(N5CCC(C(=O)N(C)C)CC5)nc4s3)ccc2o1
unit_abbreviation: h
obs_value: 1

given_smiles: O=C(Nc1ccc(-c2ccc(F)cn2)cc1)c1cc2sc(NCCN3CCOCC3)nc2s1
unit_abbreviation: h
obs_value: 1

---

# assay: Solubility of the compound at pH 2.1
# Format: physicochemical
# run_conditions: buffer
Lab note: anything with solubility at or over 40 µg/mL counts as Y; the rest go in N.

given_smiles: O=C(Nc1ccc(-c2ccc(Cl)cn2)cc1)c1cc2sc(NCCN3CCOCC3)nc2s1
group: Y
--
given_smiles: O=C(Nc1ccc(-c2ccc(F)cc2)cn1)c1cc2sc(NCCN3CCOCC3)nc2s1
group: Y
--
given_smiles: Cc1nc2cc(NC(=O)c3cc4sc(N5CCC(C(=O)N(C)C)CC5)nc4s3)ccc2o1
group: N
--
given_smiles: Cc1ccc(-c2ccc(NC(=O)c3cc4sc(NCCN5CCOCC5)nc4s3)cc2)nc1
group: Y
--
given_smiles: Cc1nc2cc(NC(=O)c3cc4sc(NCCN5CCOCC5)nc4s3)ccc2o1
group: N
--
given_smiles: O=C(Nc1ccc(-c2ccc(F)cn2)cc1)c1cc2sc(NCCN3CCOCC3)nc2s1
group: Y
--
given_smiles: COc1ccc(-c2ccc(NC(=O)c3cc4sc(NCCN5CCOCC5)nc4s3)cc2)nc1
group: Y
--
given_smiles: O=C(Nc1ccc(-c2ccc(C(F)(F)F)cn2)cc1)c1cc2sc(NCCN3CCOCC3)nc2s1
group: Y
--
given_smiles: Cc1nc2cc(NC(=O)c3cc4sc(N(C)CCO)nc4s3)ccc2o1
group: N
--
given_smiles: Cc1nc2cc(NC(=O)c3cc4sc(N5CCOCC5)nc4s3)ccc2o1
group: N
--
given_smiles: Cc1nc2cc(NC(=O)c3cc4sc(N5CCC(O)CC5)nc4s3)ccc2o1
group: N
--
given_smiles: O=C(Nc1ccc(-c2ccc(F)nc2)cc1)c1cc2sc(NCCN3CCOCC3)nc2s1
group: N
--
given_smiles: O=C(Nc1ccc(-c2ccc(F)cc2)nc1)c1cc2sc(NCCN3CCOCC3)nc2s1
group: Y

---

# assay: Volume of distribution at steady state in BALB/c mouse at 3 mg/kg, iv by LC-MS analysis
# Assay type: ADME, organism-based
# run_conditions: in vivo, read-out: Vdss
test_readout: Vd (L/kg)

given_smiles: O=C(Nc1ccc(-c2ccc(F)cn2)cc1)c1cc2sc(NCCN3CCOCC3)nc2s1
test_readout: Vd
obs_value: 1.52

---

# assay: Stability in mouse plasma measured after 2 hrs
# Format: ADME, cell-free
# run_conditions: read-out: Stability
test_readout: remaining at 2 h (%)

given_smiles: Cc1nc2cc(NC(=O)c3cc4sc(N5CCC(C(=O)N(C)C)CC5)nc4s3)ccc2o1
comparison_operator: =
obs_value: 95.7
--
given_smiles: O=C(Nc1ccc(-c2ccc(F)cn2)cc1)c1cc2sc(NCCN3CCOCC3)nc2s1
comparison_operator: >
obs_value: 100

---

Measured t1/2, listed per entry.
# assay: Metabolic stability in mouse liver microsome assessed as phase I mediated metabolite formation by measuring half-life
# Format: ADME
# run_conditions: microsomes

given_smiles: COc1ccc(-c2ccc(NC(=O)c3cc4sc(NCCN5CCOCC5)nc4s3)cc2)nc1
comparison_operator: <
t1/2 (min): 30
--
given_smiles: Cc1nc2cc(NC(=O)c3cc4sc(N5CCC(O)CC5)nc4s3)ccc2o1
comparison_operator: >
t1/2 (min): 60
--
given_smiles: Cc1nc2cc(NC(=O)c3cc4sc(N5CCOCC5)nc4s3)ccc2o1
comparison_operator: >
t1/2 (min): 60
--
given_smiles: Cc1nc2cc(NC(=O)c3cc4sc(N5CCC(C(=O)N(C)C)CC5)nc4s3)ccc2o1
comparison_operator: >
t1/2 (min): 60
--
given_smiles: O=C(Nc1ccc(-c2ccc(F)nc2)cc1)c1cc2sc(NCCN3CCOCC3)nc2s1
comparison_operator: =
t1/2 (min): 45.6
--
given_smiles: Cc1nc2cc(NC(=O)c3cc4sc(N(C)CCO)nc4s3)ccc2o1
comparison_operator: =
t1/2 (min): 37.7
--
given_smiles: COc1ccc(NC(=O)c2cc3sc(N4CCOCC4)nc3s2)cc1
comparison_operator: >
t1/2 (min): 60
--
given_smiles: O=C(Nc1ccc(-c2ccc(F)cn2)cc1)c1cc2sc(NCCN3CCOCC3)nc2s1
comparison_operator: =
t1/2 (min): 45.5
--
given_smiles: Cc1nc2cc(NC(=O)c3cc4sc(NCCN5CCOCC5)nc4s3)ccc2o1
comparison_operator: >
t1/2 (min): 60
--
given_smiles: COc1cc(NC(=O)c2cc3sc(N4CCCCC4)nc3s2)cc(OC)c1
comparison_operator: =
t1/2 (min): 33.6
--
given_smiles: Cc1ccc(-c2ccc(NC(=O)c3cc4sc(NCCN5CCOCC5)nc4s3)cc2)nc1
comparison_operator: =
t1/2 (min): 27.1
